- Assay system: human BACE1 (sproBACE1) (Homo sapiens, UniProt P56817)
- Construct: sBACE1, corresponding to amino acids 1-454; made in house; host or cells: Sf9 insect cells (baculovirus), secreted into the medium
- Sequence (P56817 22-454): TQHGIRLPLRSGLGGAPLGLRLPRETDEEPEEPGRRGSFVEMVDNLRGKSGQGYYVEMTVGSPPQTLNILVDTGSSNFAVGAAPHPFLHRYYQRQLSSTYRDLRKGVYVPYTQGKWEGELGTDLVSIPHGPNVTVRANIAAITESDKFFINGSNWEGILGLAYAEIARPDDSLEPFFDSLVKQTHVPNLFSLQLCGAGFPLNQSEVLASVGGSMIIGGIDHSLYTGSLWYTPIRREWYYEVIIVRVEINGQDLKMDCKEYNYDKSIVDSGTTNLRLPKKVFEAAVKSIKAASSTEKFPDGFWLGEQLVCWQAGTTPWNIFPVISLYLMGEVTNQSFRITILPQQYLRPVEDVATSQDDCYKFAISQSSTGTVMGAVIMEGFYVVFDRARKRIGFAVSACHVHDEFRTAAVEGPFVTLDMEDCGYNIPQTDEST
- Procedure summary: BACE-1 Peptide Hydrolysis Assay (HTRF)
- Assay type: biochemical
- Cond: read-out: BACE-1 Ki
- Source text: A HindIII/PmeI fragment from pCDNA4-sBACE1myc/His was blunt ended using Klenow and subcloned into the Stu I site of PFASTBACI(A) (Invitrogen). A sBACE1mycHis recombinant bacmid was generated by transposition in DH10Bac cells (GIBCO/BRL). Subsequently, the sBACE1mycHis bacmid construct was transfected into sf9 cells using CellFectin (Invitrogen, San Diego, Calif.) in order to generate recombinant baculovirus. […]
For each entry below, report its Ki value.

So for "CN1C(=N)N[C@](C)(C[C@H]2CCC[C@@H](Nc3ccc4ccccc4n3)C2)C1=O" , the logged Ki turned out to be < 5 µM

So for CN1C(=N)NC(c2ccccc2)(c2cccc(NC(=O)c3ccoc3)c2)C1=O (racemic) , the logged Ki turned out to be < 5 µM

So for "N=C1NC(c2ccccc2)(c2ccccc2)C(=O)N1CC1CCN(C(=O)Cc2cccnc2)CC1" , the logged Ki turned out to be < 5 µM

So for "CN1C(=N)N[C@](C)(c2cc(-c3cccnc3)cs2)CC1=O" , the logged Ki turned out to be < 5 µM

So for CN1C(=N)NC(c2csc(-c3cccc(C#N)c3)c2)(C2CC2)C1=O (stereo not drawn) , the logged Ki turned out to be < 5 µM

So for CN1C(=N)NC(c2ccccc2)(c2cccc(NS(C)(=O)=O)c2)C1=O (racemic) , the logged Ki turned out to be < 5 µM

So for CC1(c2cccc(-c3cccc(Cl)c3)c2)NC(=N)N(CC2CCN(C(=O)C3CCCCC3)C2)C1=O (stereo not drawn) , the logged Ki turned out to be < 5 µM

So for "CN1C(=N)N[C@](C)(c2cc(-c3cccnc3)c3sccc3c2)CC1=O" , the logged Ki turned out to be < 5 µM

So for "CN1C(=N)N[C@@](c2cccc(-c3cccnc3F)c2)(C2CC2)C1=O" , the logged Ki turned out to be < 5 µM
